# measurement-protocol: Absorption spectra of dye alone
# Format: physicochemical
# reported-conditions: Ethanol; in M-1·cm-1 (unit assumed)

{"molecule": "CCN(CC)c1ccc2c(/C=C3\\Sc4ccccc4N3C)cc(N3CCN(CCO)CC3)[o+]c2c1 [Dye V13-01184]", "ε": "83,000"}
{"molecule": "CCN(CC)c1ccc2c(/C=C3\\Sc4ccccc4N3CC)cc(-c3ccccc3)[o+]c2c1 [Dye V02-06187]", "ε": "55,000"}
{"molecule": "CCN(CC)c1ccc2c(c1)O/C(=C\\c1cc(N(C)CCCN(C)C)[o+]c3cc(N(CC)CC)ccc13)C=C2C [Dye V13-01026]", "ε": "48,000"}
{"molecule": "CCN1c2cc3[o+]c(N(C)CCCN(C)C)cc(/C=C4\\Sc5ccccc5N4C)c3cc2C(C)=CC1(C)C [Dye V12-02144]", "ε": "49,000"}
{"molecule": "CCN1C(=Cc2cc(-c3ccccc3)[o+]c3cc(OC)ccc23)Oc2ccccc21 [Dye V02-06135]", "ε": "43,000"}
{"molecule": "CCN1C(=Cc2cc(-c3ccccc3)[o+]c3cc(OC)ccc23)Sc2ccccc21 [Dye V02-06132]", "ε": "43,000"}
{"molecule": "CCN(CC)c1ccc2c(C=C3Oc4ccccc4N3CC)cc(C(C)(C)C)[o+]c2c1 [Dye V02-06136]", "ε": "72,000"}
{"molecule": "CCN(CC)c1ccc2c(C=C3Sc4ccccc4N3CC)cc(C(C)(C)C)[o+]c2c1 [Dye V02-06124]", "ε": "85,000"}
{"molecule": "CCN(CC)c1ccc2c(/C=C3\\Oc4ccccc4N3CC)cc(-c3ccccc3)[o+]c2c1 [Dye V02-06188]", "ε": "58,000"}
{"molecule": "CCN(CC)c1ccc2c(/C=C3\\Sc4ccccc4N3C)cc(N3CC[N+](C)(CCO)CC3)[o+]c2c1 [Dye V11-03001]", "ε": "95,000"}
{"molecule": "CCN(CCCN(C)C)c1ccc2c(/C=C3\\Sc4ccccc4N3CC)cc(C(C)(C)C)[o+]c2c1 [Dye V02-07015]", "ε": "50,000"}
{"molecule": "CCN(CC)c1ccc2c(/C=C3\\Sc4ccccc4N3C)cc(N(C)CCC[N+](C)(C)C)[o+]c2c1 [Dye V11-02190]", "ε": "25,600"}
{"molecule": "CCN(CC)c1ccc2c(/C=C3\\Sc4ccccc4N3C)cc(N(C)CCCN(C)C)[o+]c2c1 [Dye V02-07027]", "ε": "60,000"}
{"molecule": "CN1C(=Cc2cc[n+](C)c3ccccc23)Sc2ccccc21 [TO, Thiazole Orange, reference compound]", "ε": "77,000"}
{"molecule": "CCN(CC)c1ccc2c(N(C)CCCN(C)C)cc(/C=C3\\Sc4ccccc4N3C)[o+]c2c1 [Dye V02-07108]", "ε": "46,000"}

* * *

# measurement-protocol: Absorption spectra of dye alone
# Type: physicochemical
# reported-conditions: TE Buffer, 8 μM dye; in M-1·cm-1 (unit assumed)
# Experimental: Stock solutions (8 mM) of each dye were prepared by dissolving each compound in dimethylsulfoxide (DMSO). Stock dye solutions were diluted to a desired concentration in tris-EDTA (TE) buffer (10 mM Tris, 1 mM EDTA, pH 8.0) immediately prior to use. […] […] Optical densities were determined at the absorbance maxima and the extinction coefficients were calculated using Beer's law.

{"molecule": "CCN(CC)c1ccc2c(/C=C3\\Sc4ccccc4N3CC)cc(-c3ccccc3)[o+]c2c1 [Dye V02-06187]", "ε": "19,668"}
{"molecule": "CCN(CC)c1ccc2c(/C=C3\\Sc4ccccc4N3C)cc(N3CCN(CCO)CC3)[o+]c2c1 [Dye V13-01184]", "ε": "40,321"}
{"molecule": "CCN(CC)c1ccc2c(N(C)CCCN(C)C)cc(/C=C3\\Sc4ccccc4N3C)[o+]c2c1 [Dye V02-07108]", "ε": "27,418"}
{"molecule": "CCN1C(=Cc2cc(-c3ccccc3)[o+]c3cc(OC)ccc23)Sc2ccccc21 [Dye V02-06132]", "ε": "18,850"}

* * *

# Test system: λDNA
# measurement-protocol: Fluorescence enhancement of dye with λDNA
# Assay type: binding
# reported-conditions: 0.8 μM dye, 3.2 μM DNA, one minute
# maps each entry to its Fluorescence λ DNA/ssDNA
assay-endpoint: Fluorescence λ DNA/ssDNA

{"compound": "CCN(CCCN(C)C)c1ccc2c(/C=C3\\Sc4ccccc4N3CC)cc(C(C)(C)C)[o+]c2c1 [Dye V02-07015]", "result": 3.7}
{"compound": "CCN(CC)c1ccc2c(/C=C3\\Sc4ccccc4N3C)cc(N3CCN(CCO)CC3)[o+]c2c1 [Dye V13-01184]", "result": 6.1}
{"compound": "CN1C(=Cc2cc[n+](C)c3ccccc23)Sc2ccccc21 [TO, Thiazole Orange, reference compound]", "result": 3.3}
{"compound": "CCN(CC)c1ccc2c(N(C)CCCN(C)C)cc(/C=C3\\Sc4ccccc4N3C)[o+]c2c1 [Dye V02-07108]", "result": 1.8}
{"compound": "CCCN(CCCN(C)C)C1=C/C(=C\\c2sc3ccccc3[n+]2C)c2ccccc2N1c1ccccc1 [SYBR Green, reference compound]", "result": 8.3}
{"compound": "CCN(CC)c1ccc2c(/C=C3\\Sc4ccccc4N3C)cc(N(C)CCCN(C)C)[o+]c2c1 [Dye V02-07027]", "result": 2.8}
{"compound": "CCN1c2cc3[o+]c(N(C)CCCN(C)C)cc(/C=C4\\Sc5ccccc5N4C)c3cc2C(C)=CC1(C)C [Dye V12-02144]", "result": 2.8}
{"compound": "CCN(CC)c1ccc2c(C=C3Sc4ccccc4N3CC)cc(C(C)(C)C)[o+]c2c1 [Dye V02-06124]", "result": 1.6}
{"compound": "CCN(CC)c1ccc2c(C=C3Oc4ccccc4N3CC)cc(C(C)(C)C)[o+]c2c1 [Dye V02-06136]", "result": 1}
{"compound": "CCN(CC)c1ccc2c(c1)O/C(=C\\c1cc(N(C)CCCN(C)C)[o+]c3cc(N(CC)CC)ccc13)C=C2C [Dye V13-01026]", "result": 1.4}
{"compound": "C[n+]1c(/C=C2\\C=CN(c3ccccc3)c3ccccc32)sc2ccccc21 [Dye V02-06101, reference compound]", "result": 4.1}
{"compound": "CCN(CC)c1ccc2c(/C=C3\\Oc4ccccc4N3CC)cc(-c3ccccc3)[o+]c2c1 [Dye V02-06188]", "result": 1.5}
{"compound": "CCN(CC)c1ccc2c(/C=C3\\Sc4ccccc4N3CC)cc(-c3ccccc3)[o+]c2c1 [Dye V02-06187]", "result": 6.7}

* * *

# measurement-protocol: Absorption spectra of dye alone
# Format: physicochemical
# reported-conditions: TE Buffer, 8 μM dye
assay-endpoint: λex (nm)

{"molecule": "CCN1c2cc3[o+]c(N(C)CCCN(C)C)cc(/C=C4\\Sc5ccccc5N4C)c3cc2C(C)=CC1(C)C", "result": 484}
{"molecule": "CCN(CC)c1ccc2c(/C=C3\\Sc4ccccc4N3C)cc(N3CC[N+](C)(CCO)CC3)[o+]c2c1", "result": 487}
{"molecule": "CCN(CC)c1ccc2c(N(C)CCCN(C)C)cc(/C=C3\\Sc4ccccc4N3C)[o+]c2c1", "result": 496}
{"molecule": "CN1C(=Cc2cc[n+](C)c3ccccc23)Sc2ccccc21 [TO, Thiazole Orange, reference compound]", "result": 501}
{"molecule": "CCN(CC)c1ccc2c(/C=C3\\Oc4ccccc4N3CC)cc(-c3ccccc3)[o+]c2c1", "result": 499}
{"molecule": "CCN(CC)c1ccc2c(/C=C3\\Sc4ccccc4N3CC)cc(-c3ccccc3)[o+]c2c1", "result": 524}
{"molecule": "CCN(CC)c1ccc2c(/C=C3\\Sc4ccccc4N3C)cc(N(C)CCC[N+](C)(C)C)[o+]c2c1", "result": 477}
{"molecule": "CCN(CC)c1ccc2c(c1)O/C(=C\\c1cc(N(C)CCCN(C)C)[o+]c3cc(N(CC)CC)ccc13)C=C2C", "result": 543}
{"molecule": "CCN1C(=Cc2cc(-c3ccccc3)[o+]c3cc(OC)ccc23)Sc2ccccc21", "result": 480}
{"molecule": "CCN(CCCN(C)C)c1ccc2c(/C=C3\\Sc4ccccc4N3CC)cc(C(C)(C)C)[o+]c2c1", "result": 515}
{"molecule": "CCN(CC)c1ccc2c(C=C3Sc4ccccc4N3CC)cc(C(C)(C)C)[o+]c2c1", "result": 515}
{"molecule": "CCN(CC)c1ccc2c(/C=C3\\Sc4ccccc4N3C)cc(N3CCN(CCO)CC3)[o+]c2c1", "result": 455}
{"molecule": "CCN(CC)c1ccc2c(C=C3Oc4ccccc4N3CC)cc(C(C)(C)C)[o+]c2c1", "result": 492}
{"molecule": "CCN(CC)c1ccc2c(/C=C3\\Sc4ccccc4N3C)cc(N(C)CCCN(C)C)[o+]c2c1", "result": 475}
{"molecule": "CCCN(CCCN(C)C)C1=C/C(=C\\c2sc3ccccc3[n+]2C)c2ccccc2N1c1ccccc1 [SYBR Green, reference compound]", "result": 494}
